# TESTED TARGET: Methylosome protein 50/Protein arginine N-methyltransferase 5 (Homo sapiens, UniProt O14744+Q9BQA1)
# Sequence (O14744 whole entry): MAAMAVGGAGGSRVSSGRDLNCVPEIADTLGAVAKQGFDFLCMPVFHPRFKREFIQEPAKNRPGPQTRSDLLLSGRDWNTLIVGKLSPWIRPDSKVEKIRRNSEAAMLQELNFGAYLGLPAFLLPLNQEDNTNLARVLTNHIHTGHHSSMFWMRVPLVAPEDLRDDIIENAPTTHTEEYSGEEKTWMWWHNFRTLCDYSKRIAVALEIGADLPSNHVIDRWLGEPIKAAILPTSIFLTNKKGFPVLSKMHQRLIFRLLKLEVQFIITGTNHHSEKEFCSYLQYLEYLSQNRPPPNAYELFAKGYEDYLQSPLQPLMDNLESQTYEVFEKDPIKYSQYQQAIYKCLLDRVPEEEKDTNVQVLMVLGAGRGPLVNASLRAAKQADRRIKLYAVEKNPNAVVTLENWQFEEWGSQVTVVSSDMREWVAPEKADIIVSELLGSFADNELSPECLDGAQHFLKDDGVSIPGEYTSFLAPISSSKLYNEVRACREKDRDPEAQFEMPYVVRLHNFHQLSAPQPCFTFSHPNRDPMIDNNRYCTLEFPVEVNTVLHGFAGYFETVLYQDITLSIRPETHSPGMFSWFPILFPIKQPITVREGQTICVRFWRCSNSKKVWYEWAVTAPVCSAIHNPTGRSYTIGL
# Sequence (Q9BQA1 whole entry): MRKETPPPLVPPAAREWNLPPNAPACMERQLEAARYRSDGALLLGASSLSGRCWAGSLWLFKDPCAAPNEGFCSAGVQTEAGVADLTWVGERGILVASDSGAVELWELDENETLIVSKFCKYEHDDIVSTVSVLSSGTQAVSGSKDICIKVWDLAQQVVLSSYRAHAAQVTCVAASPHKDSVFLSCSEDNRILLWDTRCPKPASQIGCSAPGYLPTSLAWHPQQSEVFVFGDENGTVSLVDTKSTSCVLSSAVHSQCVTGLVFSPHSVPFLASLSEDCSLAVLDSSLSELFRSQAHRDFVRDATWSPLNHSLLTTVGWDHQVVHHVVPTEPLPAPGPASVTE
# ASSAY PROCEDURE: Biochemical Assay

{"MOLECULE": "Nc1ncnc2c1ccn2[C@@H]1O[C@H]([C@H]2OC(=O)c3cc(Cl)ccc32)[C@@H](O)[C@H]1O [US11214574, Ex# 1B]", "IC50 [nM]": 270}
